The measurements presented in this section are drawn from the supplement of paper PMC10598134.

Give measured collision cross section for each item. Keep answers brief.
assay: collision cross section of modified peptide (TIMS, N2, iRT-aligned); higher = larger / more extended gas-phase ion
condition.label: charge state: 2; modification: HexNAc (ST)
One number for each entry, in Å².

>>> print(df.to_string())
                             query_sequence            assay_readout  assay_value
0  LPTTAASTPDAVDK [_LPT(HexNAc (ST))TAASTPDAVDK_]  collision cross section       413.95
1    TATLATLATR [_TATLATLAT(HexNAc (ST))R_]  collision cross section        364.8
2  SSSAGGQGSYVPLLR [_SSS(HexNAc (ST))AGGQGSYVPLLR_]  collision cross section       427.89
3  DYSQPTAAATVQDIK [_DYSQPTAAAT(HexNAc (ST))VQDIK_]  collision cross section       449.73

Given ITESVAETAQTIKK [_ITESVAET(HexNAc (ST))AQTIKK_] , state its recorded collision cross section. 456.71
